Details: Ebola virus entry assay, blue channel fluorescence
Calls of active or inactive are those of the source. The rule behind the calls is not given here.
Thanks in advance; please answer with one of these: active, inactive

compound: CCN(CC)C(=O)c1cccc(C)c1
class.name: inactive

compound: O=C(CCCN1CC=C(n2c(=O)[nH]c3ccccc32)CC1)c1ccc(F)cc1
class.name: active

compound: CC(=O)c1ccc2c(c1)N(CCCN(C)C)c1ccccc1S2
class.name: active

compound: CN(C)CCN(Cc1cccs1)c1ccccn1
class.name: active

compound: C#CC1(O)CC[C@H]2[C@@H]3CCC4=CCCC[C@@H]4[C@H]3CC[C@@]21C (some centres not stated)
class.name: active

compound: CCOc1cc(N)c(Cl)cc1C(=O)NCC1CN(Cc2ccc(F)cc2)CCO1 (configuration not stated)
class.name: inactive

compound: O=C(NCC1CN(c2ccc(N3CCOCC3=O)cc2)C(=O)O1)c1ccc(Cl)s1 (configuration not stated)
class.name: inactive

compound: OCC(CO)N[C@H]1C[C@](O)(CO)[C@@H](O)[C@H](O)[C@H]1O
class.name: inactive

Input line: Write down the call the test reported for this compound. Item: CCCCCCCCCCCC[N+](C)(C)CCOc1ccccc1
Output line: active

Input line: CCC(=O)c1ccc(O)cc1 , same question.
Output line: inactive

Input line: Param item: CCCSS/C(CCO)=C(\C)N(C=O)Cc1cnc(C)nc1N
Output line: inactive

Input line: Now this one: CC(CC1c2ccccc2CCc2ccccc21)CN(C)C (configuration not stated)
Output line: active

---

Assay: Cytotoxicity counterscreen for inhibitors of SARS-CoV-2 cell entry (AID 1645845); note: nearly all actives have a fitted effect of over 50% in size
Conditions: cell viability (SARS-CoV-2 entry assay cells); series mostly up to 57.1 µM
Records with an inconclusive call do not appear. The source made the active and inactive calls. Calls come from the whole dose curve.
property.name: outcome

Consider the following illustrative entries.
compound: C/C(=N/NC(=O)c1ccncc1)C(=O)O
outcome: inactive

compound: C[C@]12CCC(=O)C=C1[C@@H]1C[C@@H]1[C@H]1[C@@H]3[C@@H]4C[C@@H]4[C@@]4(CCC(=O)O4)[C@@]3(C)CC[C@@H]12
outcome: inactive

compound: CCOC(=O)OCC/C(SC(=O)OCC)=C(\C)N(C=O)Cc1cnc(C)nc1N
outcome: inactive

compound: O=C(O)CCC(=O)OC[C@@H](NC(=O)C(Cl)Cl)[C@H](O)c1ccc([N+](=O)[O-])cc1
outcome: inactive

compound: CCOC(=O)c1ncn2c1CN(C)C(=O)c1c(I)cccc1-2
outcome: inactive

compound: O=C(O)c1ccccc1Nc1cc(Cl)ccc1C(=O)O
outcome: inactive

compound: Brc1c(NC2=NCCN2)ccc2nccnc12
outcome: inactive

compound: CC(Cc1ccccc1)NCCCCl (stereo not given)
outcome: inactive

compound: CC1(C)[C@@H](OC(=O)CCC(=O)O)CC[C@]2(C)[C@H]3C(=O)C=C4[C@@H]5C[C@@](C)(C(=O)O)CC[C@]5(C)CC[C@@]4(C)[C@]3(C)CC[C@@H]12
outcome: inactive

Now consider the entry below.
Input line: Any idea what outcome was measured for CCCC(=O)OC[C@@H](OC(=O)CCC)[C@@H](OC(=O)CCC)[C@H](Cn1c2nc(=O)[nH]c(=O)c-2nc2cc(C)c(C)cc21)OC(=O)CCC ?
Output line: inactive

---

Assay: qHTS of pediatric cancer cell lines to identify multiple opportunities for drug repurposing: Primary screen for SK-N-MC cells (AID 1347093)
Conditions: SK-N-MC viability, CellTiter-Glo luminescence, 48 h; series mostly up to 46 µM
Inconclusive results are not listed. Activity calls are given as the source filed them. The call rests on the fitted dose curve; in most records, active means well fitted cell-killing curve with a large enough effect; inconclusive means small, poorly fitted or top-dose-only effect; inactive means no such curve, though single readings can be large or run the other way.

compound: COP(=S)(OC)Oc1ccc(S(N)(=O)=O)cc1
outcome: inactive

compound: CCC(=O)OC1(c2ccccc2)CCN(C)CC1
outcome: inactive

compound: CCN(CC)C(C)C(=O)c1ccccc1 (stereo not drawn)
outcome: inactive
